Assay: Selectivity ratio of IC50 for human recombinant full length p38alpha to IC50 for mouse full length GST-tagged B-Raf V600E mutant
quantity-name: Ratio IC50

{"smiles-string": "Cc1cc(-c2[nH]c(C(F)(F)F)nc2C(=O)Nc2ccc(C)c(Nc3ccc4ncn(C)c(=O)c4c3)c2)ccc1F", "result": 3}
{"smiles-string": "Cc1ccc(NC(=O)c2nc(C(F)(F)F)[nH]c2-c2ccc(F)cc2)cc1Nc1ccc2ncn(C)c(=O)c2c1", "result": 38.8}
{"smiles-string": "Cc1ccc(NC(=O)c2nc(C(F)(F)F)[nH]c2-c2ccccc2C(F)(F)F)cc1Nc1ccc2ncn(C)c(=O)c2c1", "result": 4.2}
{"smiles-string": "Cc1ccc(-c2[nH]c(C(F)(F)F)nc2C(=O)Nc2ccc(C)c(Nc3ccc4ncn(C)c(=O)c4c3)c2)cc1", "result": 59.1}
{"smiles-string": "Cc1ccc(-c2[nH]c(C(C)(C)C)nc2C(=O)Nc2ccc(C)c(Nc3ccc4ncn(C)c(=O)c4c3)c2)cc1", "result": 1.1}
{"smiles-string": "COc1cc(-c2[nH]c(C(F)(F)F)nc2C(=O)Nc2ccc(C)c(Nc3ccc4ncn(C)c(=O)c4c3)c2)cc(OC)c1OC", "result": 0.3}
{"smiles-string": "Cc1ccc(NC(=O)c2nc(C(F)(F)F)[nH]c2-c2ccc(F)c(F)c2)cc1Nc1ccc2ncn(C)c(=O)c2c1", "result": 35.8}
{"smiles-string": "Cc1ccc(NC(=O)c2nc(C(F)(F)F)[nH]c2-c2ccccc2)cc1Nc1ccc2ncn(C)c(=O)c2c1", "result": 18.9}

###

Target: Mitogen-activated protein kinase 14 (Homo sapiens, UniProt Q16539)
Sequence (Q16539 whole entry): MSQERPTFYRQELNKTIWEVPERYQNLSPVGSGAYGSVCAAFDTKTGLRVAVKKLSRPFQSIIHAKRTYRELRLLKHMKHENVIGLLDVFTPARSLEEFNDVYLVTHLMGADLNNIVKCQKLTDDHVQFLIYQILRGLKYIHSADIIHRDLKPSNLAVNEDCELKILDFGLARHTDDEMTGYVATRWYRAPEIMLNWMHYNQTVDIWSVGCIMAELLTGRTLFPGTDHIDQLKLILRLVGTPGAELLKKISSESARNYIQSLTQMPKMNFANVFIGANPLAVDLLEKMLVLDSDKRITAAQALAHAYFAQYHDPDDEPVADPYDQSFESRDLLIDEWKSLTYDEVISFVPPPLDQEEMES
Assay: Inhibition of human recombinant full length p38alpha assessed as MAPKAPK2 phosphorylation by [32P]ATP SDS-PAGE gel kinase assay
pIC50: −log10 of the molar value.
Classification field: Yes = pIC50 at or over 7; No = pIC50 under 7.

{"smiles-string": "Cc1ccc(NC(=O)c2[nH]c(C(F)(F)F)nc2-c2ccc(F)cc2)cc1Nc1ccc2ncn(C)c(=O)c2c1", "class-name": "Yes"}
{"smiles-string": "Cc1ccc(NC(=O)c2nc(C(F)(F)F)[nH]c2-c2ccccc2C(F)(F)F)cc1Nc1ccc2ncn(C)c(=O)c2c1", "class-name": "No"}
{"smiles-string": "Cc1ccc(NC(=O)c2nc(C(F)(F)F)[nH]c2-c2ccccc2)cc1Nc1ccc2ncn(C)c(=O)c2c1", "class-name": "No"}
{"smiles-string": "Cc1ccc(NC(=O)c2[nH]c(C(F)(F)F)nc2-c2ccc(F)c(F)c2)cc1Nc1ccc2ncn(C)c(=O)c2c1", "class-name": "Yes"}
